# credit: the supplement of paper PMC3545927

# assayed.system: furin, P09958;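 further: purified furin at 1:10 enzyme:substrate in 50 mM HEPES pH 7.5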
# Sequence (P09958 whole entry): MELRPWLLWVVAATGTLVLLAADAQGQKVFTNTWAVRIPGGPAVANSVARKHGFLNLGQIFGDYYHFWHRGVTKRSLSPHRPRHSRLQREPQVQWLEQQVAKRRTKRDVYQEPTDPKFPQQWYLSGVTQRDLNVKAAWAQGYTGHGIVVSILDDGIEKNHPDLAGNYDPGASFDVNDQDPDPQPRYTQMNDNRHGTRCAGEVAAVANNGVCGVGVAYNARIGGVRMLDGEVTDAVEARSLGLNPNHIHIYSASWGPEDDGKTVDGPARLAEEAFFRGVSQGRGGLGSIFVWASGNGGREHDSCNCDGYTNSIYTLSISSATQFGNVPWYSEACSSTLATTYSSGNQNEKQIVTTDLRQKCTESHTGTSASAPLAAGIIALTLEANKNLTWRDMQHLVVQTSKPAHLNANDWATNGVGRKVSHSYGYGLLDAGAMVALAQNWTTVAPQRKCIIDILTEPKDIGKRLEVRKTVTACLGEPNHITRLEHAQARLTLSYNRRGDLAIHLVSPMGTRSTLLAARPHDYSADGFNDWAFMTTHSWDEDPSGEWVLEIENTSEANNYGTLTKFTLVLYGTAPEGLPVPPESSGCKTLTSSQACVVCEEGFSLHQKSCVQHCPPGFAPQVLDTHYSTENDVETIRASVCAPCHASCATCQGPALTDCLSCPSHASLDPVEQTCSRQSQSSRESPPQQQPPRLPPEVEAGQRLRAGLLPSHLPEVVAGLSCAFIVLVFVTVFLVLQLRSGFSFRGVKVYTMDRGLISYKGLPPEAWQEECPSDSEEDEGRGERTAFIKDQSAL
# assay.summary: furin cleavage Z-score vs untreated control; higher = more cleavage, active = 3.5 or more, inactive = 1 or less, 8 variable residues between constant flanks
# test.conditions: 30 min
The other results are listed elsewhere or left out. No count for the full screen is at hand.
Assign a class; possible classes are 1 (yes) (active), 0 (no) (inactive)

See these solved cases before continuing.
INSERT INTO assay_data (polymer_sequence, answer_label) VALUES
  ('CARKTRFIIHAGNASASA [FS-2426]', '0 (no)'),
  ('CARRARHPGQAGNASASA [FS-2448]', '0 (no)'),
  ('CARKRRNTIHAGNASASA [FS-2567]', '1 (yes)');

State the result this test recorded for CARKRRETSQAGNASASA [FS-2347] . 1 (yes)
